# assayed_target: HLA-A*03:01
# protocol_description: IEDB peptide-MHC binding, purified MHC/competitive/radioactivity; filed as Kd, often an IC50 or EC50 that approximates it; bounds were set here for any values at or beyond the usual limits of such assays
# measurement_parameters: source organism: Dengue virus 4 Philippines/H241/1956
property_name: Kd (nM)
Your answer should be a plain number; it is taken to be in nM.

Enquiry: I would be grateful if you could share the reported Kd for MSYTMCSGK .
Return: 3.04

Enquiry: I would be grateful if you could share the reported Kd for CVYNMMGKR .
Return: 63.4

====

# assayed_target: HLA-A*68:02
# protocol_description: IEDB peptide-MHC binding, purified MHC/competitive/fluorescence; filed as Kd, often an IC50 or EC50 that approximates it; bounds were set here for any values at or beyond the usual limits of such assays
# measurement_parameters: source organism: Rickettsia sibirica 246
property_name: Kd

Enquiry: I would be grateful if you could share the reported Kd for YLKKLDDFY .
Return: ≥ 20 µM

Data provenance: the Immune Epitope Database (IEDB)
